System: HT-29
EXPERIMENT_SUMMARY: Antiproliferative activity against human HT-29 cells after 72 hrs by luminescence-based cell viability assay
Format: functional
CONDITION: HT-29, 72 h
pIC50: recorded values
By convention, pIC50 is the negative base-10 log of a molar concentration.

[
  {
    "MOLECULE": "CC(Oc1cc(-n2cnc3ccc(OC4CCN(C)CC4)cc32)sc1C(N)=O)c1ccccc1C(F)(F)F (single isomer, unassigned)",
    "pIC50": 8.52
  }
]

Consider the record given below.
// returns reported pIC50 for input CC(Oc1cc(-n2cnc3ccc(OC4CCN(C)CC4)cc32)sc1C(N)=O)c1ccccc1Cl (single isomer, unassigned) [GSK-579289A]
8.52
